- Assay target: RIPK2 (KD)/XIAP (BIR2) (Homo sapiens)
- Construct: made in house; host or cells: baculovirus-infected Sf9 cells
- Sequence (O43353 1-310): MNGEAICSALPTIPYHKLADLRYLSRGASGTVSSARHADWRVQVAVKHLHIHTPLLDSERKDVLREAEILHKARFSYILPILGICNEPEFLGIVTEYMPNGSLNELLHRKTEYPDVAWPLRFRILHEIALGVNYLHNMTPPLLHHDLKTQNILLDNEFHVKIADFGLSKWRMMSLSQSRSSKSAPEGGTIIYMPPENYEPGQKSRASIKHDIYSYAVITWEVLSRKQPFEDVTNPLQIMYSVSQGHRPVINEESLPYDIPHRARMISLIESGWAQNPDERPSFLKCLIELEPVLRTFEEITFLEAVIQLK
- Protocol text: RIPK2-XIAP binding competition PPI assay (TR-FRET)
- Condition parameters: 50 nM of GSK583 = -100% activity, read-out: PPI Amax
Readout name: Emax

In the examples that follow, each entry is paired with its recorded Emax.
- Compound: "COc1cc2ncc(-c3cc(C(=O)N[C@H](C)c4ccccn4)n(CCO)n3)n2cc1S(=O)(=O)C(C)(C)C"
  Result: "≥ 80%"
- Compound: "COc1cc2ncc(-c3cc(C(=O)NCc4ccncc4)n(C)n3)n2cc1S(=O)(=O)C(C)(C)C"
  Result: "≤ 30%"
- Compound: "COc1cc2ncc(-c3cc(C(=O)NC4(c5ncccn5)CC4)n(C)n3)n2cc1S(=O)(=O)C(C)(C)C"
  Result: "30 to 55%"
- Compound: "COc1cc2ncc(-c3cc(C(=O)N[C@H](C)c4ccccn4)n(CC(F)(F)CO)n3)n2cc1S(=O)(=O)C(C)(C)C"
  Result: "≥ 80%"

GET /values?readout=Emax&item= `COc1cc2ncc(-c3cc(C(=O)N[C@H]4CCc5cccnc54)n(C)n3)n2cc1S(=O)(=O)C(C)(C)C` ≥ 80%

GET /values?readout=Emax&item= `C[C@@H](NC(=O)c1cc(-c2cnn3cc(OCCO)c(S(=O)(=O)C(C)(C)C)cc23)nn1C)c1ncccc1F` ≥ 80%

GET /values?readout=Emax&item= `COc1cc2ncc(-n3cc(N4CCC5(CCCCC5)C4=O)cn3)n2cc1S(=O)(=O)C(C)(C)C` 30 to 55%

GET /values?readout=Emax&item= `CCn1nc(-c2cnc3cc(OCCO)c(S(=O)(=O)C(C)(C)C)cn23)cc1C(=O)N[C@H](C)c1ccn(C)n1` ≥ 80%

GET /values?readout=Emax&item= `COc1cc2ncc(-c3cc(C(=O)NCc4cc(C)sn4)n(C)n3)n2cc1S(=O)(=O)C(C)(C)C` ≥ 80%

GET /values?readout=Emax&item= COc1cc2ncc(-c3cc(C(=O)N[C@@H]4C[C@@H]4c4ccccc4)n(C)n3)n2cc1S(=O)(=O)C(C)(C)C (single isomer, unassigned) 30 to 55%

GET /values?readout=Emax&item= `COc1cc2ncc(-c3cc(NC(=O)C4(F)CCCCC4)n(CCO)n3)n2cc1S(=O)(=O)C(C)(C)C` ≥ 80%
